test system: J774.A1; assay: Cytotoxicity against mouse J774.A1 cells assessed as antiproliferative activity at 12.5 to 50 uM incubated for 24 hrs by MTT assay relative to control; assay type: cell-based; settings: j774.a1, 24 h, dose 12.5-50 µM
property_measured: Activity

// solved cases for Activity follow
• CC(C)c1cc2ccc3c(c2c(O)c1O)C=CC(=O)C3(C)C = Non-Toxic
• Cc1cc2c(cc1O)[C@@]13CCCC(C)(C)[C@@H]1[C@H](OC3)[C@@H]2O = Toxic
• CC(CO)C1=C(O)C(=O)c2c(ccc3c2[C@H](O)CCC3(C)C)C1=O (stereo partly drawn) = Non-Toxic
• Cc1cc2c(cc1O)[C@@]13CCC(=O)C(C)(C)[C@@H]1C[C@@H]2OC3 = Non-Toxic

Inquiry: I'd like to know its Activity. The compound in question is CC1(C)CCC[C@@]23CO[C@@H](C[C@@H]12)c1cc(O)c(O)cc13
Reply text: Toxic

Inquiry: Value lookup for Activity; key = Cc1cc2c(cc1O)C[C@]1(O)CCCC(C)(C)[C@@H]1CC2
Reply text: Non-Toxic

Inquiry: Fill in: Activity of CC1=C[C@]2(O)CC[C@H]3C(C)(C)CCC[C@@]3(O)C2=CC1=O is ___
Reply text: Non-Toxic

Inquiry: Would you kindly share the measured Activity for CC1=C[C@@]2(O)CC[C@H]3C(C)(C)CCC[C@]3(CO)C2=CC1=O ?
Reply text: Toxic

Where do these numbers come from? They come from ChEMBL document CHEMBL5033989.
